Target: Fe(3+)-Zn(2+) purple acid phosphatase (Phaseolus vulgaris, UniProt P80366)
Sequence (P80366 whole entry): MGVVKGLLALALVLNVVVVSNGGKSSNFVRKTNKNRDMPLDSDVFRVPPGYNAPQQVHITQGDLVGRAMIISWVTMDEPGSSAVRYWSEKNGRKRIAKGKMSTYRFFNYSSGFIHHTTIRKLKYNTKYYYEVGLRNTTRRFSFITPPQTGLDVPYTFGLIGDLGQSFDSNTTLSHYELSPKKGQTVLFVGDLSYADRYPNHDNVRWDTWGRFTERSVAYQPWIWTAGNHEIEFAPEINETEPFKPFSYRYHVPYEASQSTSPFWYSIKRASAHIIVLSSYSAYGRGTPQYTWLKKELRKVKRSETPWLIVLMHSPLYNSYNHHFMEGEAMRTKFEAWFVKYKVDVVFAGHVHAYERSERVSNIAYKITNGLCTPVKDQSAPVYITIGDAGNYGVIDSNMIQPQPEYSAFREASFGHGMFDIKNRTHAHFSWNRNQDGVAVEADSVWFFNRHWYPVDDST
Assay: Competitive inhibition of red kidney bean purple acid phosphatase Fe(3)Fe(2) state assessed as enzyme-inhibitor complex using pNPP as substrate by UV/Vis spectrophotometric method
Ki overview
measured-endpoint: Ki

[
  {
    "record-smiles": "O=C(O)c1csc(-c2ccc(Cl)cc2)n1",
    "study-target": "Fe(3+)-Zn(2+) purple acid phosphatase (Phaseolus vulgaris, UniProt P80366)",
    "result": "530 µM"
  },
  {
    "record-smiles": "O=C(O)c1csc(-c2cccc3ccccc23)n1",
    "study-target": "Fe(3+)-Zn(2+) purple acid phosphatase (Phaseolus vulgaris, UniProt P80366)",
    "result": "185 µM"
  },
  {
    "record-smiles": "O=C(O)c1csc(-c2ccccc2Cl)n1",
    "study-target": "Fe(3+)-Zn(2+) purple acid phosphatase (Phaseolus vulgaris, UniProt P80366)",
    "result": "920 µM"
  },
  {
    "record-smiles": "Cc1ccc(-c2nc(C(=O)O)cs2)cc1",
    "study-target": "Fe(3+)-Zn(2+) purple acid phosphatase (Phaseolus vulgaris, UniProt P80366)",
    "result": "340 µM"
  },
  {
    "record-smiles": "COc1ccc(-c2nc(C(=O)O)cs2)cc1",
    "study-target": "Fe(3+)-Zn(2+) purple acid phosphatase (Phaseolus vulgaris, UniProt P80366)",
    "result": "400 µM"
  }
]
